Target: Siglec-2 (murine CD22) (Mus musculus)
Experiment: Hapten inhibition assay, Siglec-2 (murine CD22)
Assay type: binding
Settings: unit inferred
experimentalEndpoint: pIC50
The meaning of pIC50 here: minus log10 of the concentration in molar units.

query: Supply reported pIC50 belonging to this compound: CO[C@]1(C(=O)O)C[C@H](O)[C@@H](NC(C)=O)[C@H]([C@H](O)[C@H](O)CNC(=O)c2cccc3ccccc23)O1
result: 4.04

query: Supply reported pIC50 belonging to this compound: CO[C@]1(C(=O)O)CC(O)[C@@H](NC(C)=O)C([C@@H](O)[C@H](O)CNC(=O)c2ccc(-c3ccccc3)cc2)O1 (stereo partly shown)
result: 2.91

query: Supply reported pIC50 belonging to this compound: CO[C@]1(C(=O)O)C[C@H](O)[C@@H](NC(C)=O)[C@H]([C@H](O)[C@H](O)CNC(=O)c2ccc([N+](=O)[O-])cc2[N+](=O)[O-])O1
result: 3.23

query: Supply reported pIC50 belonging to this compound: CO[C@]1(C(=O)O)C[C@H](O)[C@@H](NC(C)=O)[C@H]([C@H](O)[C@H](O)CNC(=O)C2CCCCC2)O1
result: 3.12

query: Supply reported pIC50 belonging to this compound: COC1(C(=O)O)CC(O)C(NC(C)=O)C(C(O)C(O)CNC(=O)c2c(F)c(F)c(F)c(F)c2F)O1 (stereo not shown)
result: 2.60

query: Supply reported pIC50 belonging to this compound: CO[C@]1(C(=O)O)C[C@H](O)[C@@H](NC(C)=O)[C@H]([C@H](O)[C@H](O)CNC(=O)Cc2ccc(-c3ccccc3)cc2)O1
result: 3.91

query: Supply reported pIC50 belonging to this compound: CO[C@]1(C(=O)O)C[C@H](O)[C@@H](NC(C)=O)[C@H]([C@H](O)[C@H](O)CNC(=O)C(c2ccccc2)c2ccccc2)O1
result: 3.99

----------
Target: UniProt:P20273
Sequence (P20273 20-138 limits assumed): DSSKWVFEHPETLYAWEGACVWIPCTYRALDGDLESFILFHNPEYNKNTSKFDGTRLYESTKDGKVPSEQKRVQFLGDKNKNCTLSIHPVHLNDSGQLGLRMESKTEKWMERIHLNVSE
Assay: Hapten inhibition assay, Siglec-2 (human CD22)
Format: binding
Conditions: unit inferred
Form field: IC50 (one value per entry).
Report the value in µM with no unit label.

query: Supply reported IC50 belonging to this compound: COC1(C(=O)O)CC(O)C(NC(C)=O)C(C(O)C(O)CNC(=O)c2cccc3cc4ccccc4cc23)O1 (stereo not shown)
result: 338

query: Supply reported IC50 belonging to this compound: CCOc1c(N[C@H]2[C@H]([C@H](O)[C@H](O)CO)O[C@@](OC)(C(=O)O)C[C@@H]2O)c(=O)c1=O
result: 940

query: Supply reported IC50 belonging to this compound: CO[C@]1(C(=O)O)C[C@H](O)[C@@H](NC(C)=O)[C@H]([C@H](O)[C@H](O)CNC(=O)c2ccc([N+](=O)[O-])cc2[N+](=O)[O-])O1
result: 287

As a next step, examine the compound that follows.
query: Supply reported IC50 belonging to this compound: COC1(C(=O)O)CC(O)C(NC(C)=O)C(C(O)C(O)CNC(=O)c2cccc(Oc3ccccc3)c2)O1 (stereo not shown)
result: 10

----------
Molecular target: Siglec-2 (murine CD22) (Mus musculus, UniProt P35329)
Sequence (P35329 22-148 limits assumed): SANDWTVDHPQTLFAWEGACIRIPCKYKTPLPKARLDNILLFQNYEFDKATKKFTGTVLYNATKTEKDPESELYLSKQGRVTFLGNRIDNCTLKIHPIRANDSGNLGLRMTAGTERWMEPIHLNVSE
Test: Hapten inhibition assay, Siglec-2 (murine CD22)
Assay type: binding
Conditions: quotient IC50 reference compound / IC50 compound
Form field: Siglec-2 (murine CD22) rIP (one value per entry).
Quick one: just the number, no unit, thanks!

query: Supply reported Siglec-2 (murine CD22) rIP belonging to this compound: CO[C@]1(C(=O)O)C[C@H](O)[C@@H](NC(C)=O)[C@H]([C@H](O)[C@H](O)CNC(=O)c2ccccc2)O1
result: 3.7

query: Supply reported Siglec-2 (murine CD22) rIP belonging to this compound: CO[C@]1(C(=O)O)C[C@H](O)[C@@H](NC(=O)CO)[C@H]([C@H](O)[C@H](O)CO)O1
result: 8.3

query: Supply reported Siglec-2 (murine CD22) rIP belonging to this compound: CO[C@]1(C(=O)O)CC(O)[C@@H](NC(C)=O)C([C@@H](O)[C@H](O)CNC(=O)c2ccc(-c3ccccc3)cc2)O1 (stereo partly shown)
result: 5.0

As a next step, examine the compound that follows.
query: Supply reported Siglec-2 (murine CD22) rIP belonging to this compound: COC1(C(=O)O)CC(O)C(NC(C)=O)C(C(O)C(O)CNC(=O)c2cccc(Oc3ccccc3)c2)O1 (stereo not shown)
result: 6.7

----------
Target: Siglec-2 (murine CD22) (Mus musculus)
Sequence (P35329 22-148 limits assumed): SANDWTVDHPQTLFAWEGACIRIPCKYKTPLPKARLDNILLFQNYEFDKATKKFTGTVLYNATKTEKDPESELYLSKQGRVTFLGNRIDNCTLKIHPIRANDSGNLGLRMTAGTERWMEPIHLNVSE
Assay: Hapten inhibition assay, Siglec-2 (murine CD22)
Format: binding
Conditions: unit inferred
experimentalEndpoint: pIC50
The meaning of pIC50 here: minus log10 of the concentration in molar units.

Check out these entries, answers already filled in.
query: Supply reported pIC50 belonging to this compound: CO[C@]1(C(=O)O)C[C@H](O)[C@@H](NC(C)=O)[C@H]([C@H](O)[C@H](O)CNC(=O)c2cc(O)cc(O)c2)O1
result: 2.83

query: Supply reported pIC50 belonging to this compound: CO[C@]1(C(=O)O)C[C@H](O)[C@@H](NC(=O)CO)[C@H]([C@H](O)[C@H](O)CO)O1
result: 3.15

query: Supply reported pIC50 belonging to this compound: CO[C@]1(C(=O)O)C[C@H](O)[C@@H](NC(C)=O)[C@H]([C@H](O)[C@H](O)CNC(=O)c2ccccc2)O1
result: 2.96

Others:
query: Supply reported pIC50 belonging to this compound: CCOc1c(N[C@H]2[C@H]([C@H](O)[C@H](O)CO)O[C@@](OC)(C(=O)O)C[C@@H]2O)c(=O)c1=O
result: 2.47

----------
Molecular target: UniProt Q62230
Sequence (Q62230 20-136 limits assumed): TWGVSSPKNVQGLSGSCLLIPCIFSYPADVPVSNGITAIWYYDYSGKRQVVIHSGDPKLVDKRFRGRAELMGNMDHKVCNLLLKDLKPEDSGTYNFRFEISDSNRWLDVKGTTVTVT
Assay: Hapten inhibition assay, Siglec-1 (sialoadhesin)
Format: binding
Conditions: bounds given in mM
Form field: IC50 (one value per entry).

Check out these entries, answers already filled in.
query: Supply reported IC50 belonging to this molecule: CCOc1c(N[C@H]2[C@H]([C@H](O)[C@H](O)CO)O[C@@](OC)(C(=O)O)C[C@@H]2O)c(=O)c1=O
result: > 5 mM

query: Supply reported IC50 belonging to this molecule: COC1(C(=O)O)CC(O)C(NC(C)=O)C(C(O)C(O)CNC(=O)CC(C)=O)O1 (stereo not drawn)
result: > 10 mM

Others:
query: Supply reported IC50 belonging to this molecule: COC1(C(=O)O)CC(O)C(O)C(C(O)C(O)CO)O1 (stereo not drawn)
result: > 1 mM

query: Supply reported IC50 belonging to this molecule: CO[C@]1(C(=O)O)C[C@H](O)[C@@H](NC(C)=O)[C@H]([C@H](O)[C@H](O)CNC(=O)C2CCCCC2)O1
result: > 1 mM

query: Supply reported IC50 belonging to this molecule: CO[C@]1(C(=O)O)C[C@H](O)[C@@H](NC(C)=O)[C@H]([C@H](O)[C@H](O)CNC(=O)C(CNC(C)=O)NC(C)=O)O1 (stereo partly drawn)
result: > 10 mM

query: Supply reported IC50 belonging to this molecule: COC1(C(=O)O)CC(O)C(NC(C)=O)C(C(O)C(O)CNC(=O)c2ccc3ccccc3n2)O1 (stereo not drawn)
result: > 2.5 mM

query: Supply reported IC50 belonging to this molecule: COC1(C(=O)O)CC(O)C(NC(C)=O)C(C(O)C(O)CNC(=O)CNC(=O)CNC(=O)CN)O1 (stereo not drawn)
result: < 10 mM

query: Supply reported IC50 belonging to this molecule: O=C(NC1C(O)CC(OCc2ccccc2)(C(=O)O)OC1C(O)C(O)CO)c1ccccc1 (stereo not drawn)
result: > 10 mM

query: Supply reported IC50 belonging to this molecule: COC1(C(=O)O)CC(O)C(NC(C)=O)C(C(O)C(O)CNC(=O)CNC(=O)CN)O1 (stereo not drawn)
result: > 10 mM

----------
Target: Siglec-4a (MAG) (UniProt P20917)
Experiment: Hapten inhibition assay, Siglec-4a (MAG)
Conditions: at the concentration of the IC50 bound; meaning not defined in the patent
experimentalEndpoint: Siglec-4a (MAG) percentage in parentheses below the IC50 bound

query: Supply reported Siglec-4a (MAG) percentage in parentheses below the IC50 bound belonging to this compound: O=C(NC1C(O)CC(OCc2ccccc2)(C(=O)O)OC1C(O)C(O)CO)c1ccccc1 (stereo not drawn) [Benzyl-α-5-N-benzoyl-neuraminic acid]
result: (27%)

query: Supply reported Siglec-4a (MAG) percentage in parentheses below the IC50 bound belonging to this compound: COC1(C(=O)O)CC(O)C(NC(C)=O)C(C(O)C(O)C(=O)O)O1 (stereo not drawn) [Methyl-α-9-carboxy-Neu5Ac]
result: (87%)

query: Supply reported Siglec-4a (MAG) percentage in parentheses below the IC50 bound belonging to this compound: COC1(C(=O)O)CC(O)C(NC(C)=O)C(C(O)C(O)CNC(=O)CNC(=O)CNC(=O)CN)O1 (centres unmarked)
result: (88%)
